Measured PBM binding z-score of individual entries
- Tested on: PPARg DBDmut:RXRa IVT, anti-PPARg (DBD mutation: PPARg1 K132A/R137A, NR concentration 270 nM, RXRa partner concentration 90 nM)
- procedure_text: PBM binding z-score (relative to random genomic background probes); higher = stronger binding; sequences stand for … in GC…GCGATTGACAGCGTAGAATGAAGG
# print the numeric value only

> print(dat)
                      monomer.sequence             property  result.value
 1  CGAACTAGGTCATTGACAAGACAGTGAATAGTAA  PBM binding z-score           3.1
 2  CCGACAGGGGCATAAGGTTACCATAAGCCAGCCC  PBM binding z-score         -1.21
 3  CCGAGTAGATTATGGGGCATTCAGGCAACGGTGA  PBM binding z-score        -0.628
 4  AGAATGAGGTTATTAAGATCAGGGGATTGCGGTC  PBM binding z-score         0.849
 5  GCTGCTAGGCCAGGTTGGTCAGCTAACGGGTACG  PBM binding z-score         -1.57
 6  ACAGACAGGTGAGTGAAGGTAACTCGGCTGGACG  PBM binding z-score        -0.433
 7  CCTTACGGGGCACTCCAGGTTATAGCATCGGAGT  PBM binding z-score        -0.912
 8  TCTTGTAGATCAAAGGTAAAGAAAGCCGAAGCCT  PBM binding z-score        0.0443
 9  TCTTGTAGATAAGCAGGTTAAGAAAGCTGGCCAA  PBM binding z-score      0.000724
10  CCTACTGGGCCAACAGGTCATTGATATCAACGTT  PBM binding z-score        0.0699

Which PBM binding z-score is reported for this sequence? "ATCGCTAGGTAAAAGTTCAGTGAATCCCGAGGAT"
0.14

Tell me the measured PBM binding z-score of "TGGCCTAGGTCATTGGGCCAGTATAGTACGCATC" , please.
-0.594

Record request: PBM binding z-score value, item "TCTATTAGTTGAAGGTCAACCGACGAGTCCGTTT"
1.21

Param item = "ATCTCTAGGTCAAGATAGTTCAGTGAATGCAAAT" ; retrieve measured PBM binding z-score.
1.92

Name the recorded PBM binding z-score for "TTACCAAGGGGAGCTGAGGTCGTTGATCCAACTC" .
-0.939
